# Tested on: HT-29
# procedure summary: NCI tumour cell line growth inhibition, 48 h
Activity calls are given as the source filed them. Rule as the data show it: active = GI50 up to about 1.1 µM and inactive = higher.
Please reply with one of these outcomes: t for active, f for inactive

Sample answers from the record:
O=C1C(Cl)=C(OCCCl)C(=O)c2c(O)ccc(O)c21 = f
COc1cc(C(=O)OC2CC34CCNC35CC(OC5(OC)C2O)c2cc3c(cc24)OCO3)ccc1O (stereo unspecified) = f
O=C1CSC(c2c[nH]c3ccccc23)N1c1ccccc1[N+](=O)[O-] (stereo unspecified) = f
CS(=O)(=O)OCCN(CCOS(C)(=O)=O)c1ccc(/C=N/c2ccc(-c3csc(COc4ccccc4)n3)cc2)cc1 = f
COC(=O)C1=C(c2cc(OC)c(OC)c(OC)c2)OC(c2cc(OC)c(OC)c(OC)c2)C1 (stereo unspecified) = f
NCCC(=O)N[C@H](Cc1cc(O)c(O)c(SCC(NC(=O)CC[C@H](N)C(=O)O)C(=O)NCC(=O)O)c1)C(=O)O (stereo partly specified) = f

Problem: Dear all, I need the recorded test outcome for N#CC1C=Cc2ccccc2N1C(=O)Oc1ccccc1 (stereo unspecified) , thank you.
Result: f

Problem: One more molecule: O=C(O)C1[C@@H](C(=O)O)C1(Br)CBr (stereo partly specified)
Result: f

Problem: One more molecule: `CC(C)OP(=O)(OC(C)C)/C(C#N)=C/c1ccco1`
Result: f

Problem: One more molecule: `COc1cc([N+](=O)[O-])c(OC)c2c(Nc3ccc(S(=O)(=O)O)c4cc(S(=O)(=O)O)cc(S(=O)(=O)O)c34)cc(C)nc12`
Result: f

Problem: One more molecule: `O=[N+]([O-])C(C(Cl)=C(Cl)Cl)=C(n1nnc2ccccc21)n1nnc2ccccc21`
Result: f

Problem: One more molecule: Oc1ccc(CCc2cc(O)cc(O)c2)cc1 [DIHYDRORESVERATROL]
Result: f

Problem: One more molecule: `Cc1c(C(=O)O)oc2ccc([N+](=O)[O-])cc12`
Result: f

----------
# System: HL-60
# procedure summary: NCI tumour cell line growth inhibition, 48 h
Active and inactive are the calls of the source. Cut-off read from the data, not from the text of the source: active = GI50 up to about 1.1 µM and inactive = higher.
metric name: GI50

Worked examples, 3 compounds total:
O=C1C=C(Nc2ccccc2C(=O)CC(=O)C(=O)Nc2cccc(C(F)(F)F)c2)c2ccccc2C1=O = 4.94 µM (inactive)
COc1cc(/C=C2\CCc3ccccc3C2=O)ccc1O = 4.24 µM (inactive)
Nc1nc(Cl)c(N)c(NCC2(CO)CCC(CCc3ccccc3)C2)n1 (centres undefined) = 3.37 µM (inactive)

Problem: Look up GI50: CC(=O)C(CN(C(C)C)C(C)C)C(c1ccccc1)c1c(O)c2ccccc2oc1=O (centres undefined)
Result: > 100 µM (inactive)

Problem: One more compound: CCC1(C)N=c2c(ncn2N=C(C)C)=C(C(N)=O)N1 (centres undefined)
Result: > 100 µM (inactive)

Problem: One more compound: Cc1ccc2c(c1)C1C(CO2)C(c2ccccc2)=NN1c1ccccc1 (centres undefined)
Result: 72.3 µM (inactive)

Problem: One more compound: `O=C1c2cccc3cccc(c23)C(=O)N1CCN(CCO)CCO`
Result: > 100 µM (inactive)

Problem: One more compound: `CCCCCCC(=O)OC[n+]1ccc(-c2c(COC(=O)NC(C)C)c(COC(=O)NC(C)C)c3n2CCC3)cc1`
Result: 23.3 µM (inactive)

Problem: One more compound: `NC(=S)N/N=C1\NC(=O)/C(=C/c2ccc3c(c2)OCO3)S1`
Result: 20.6 µM (inactive)
